System: EMT6
Assay: Tested for 90% inhibition against EMT-6 murine mammary carcinoma cell under normal oxygenated condition
Assay type: functional
Settings: Mus musculus
The compounds listed here are annotated with their IC90.

// worked examples, IC90 included
{"columns": ["smiles.structure", "IC90"],
 "data": [
  ["CCN(CC)C1=CC(=O)C(=O)C=C1N(CC)CC", "> 500 µM"],
  ["O=C1C=C(N2CCCC2)C(N2CCCC2)=CC1=O", "> 500 µM"],
  ["O=C1C=C(N2CC2)C(N2CC2)=CC1=O", "1.1 µM"]
]}

Ask: What value of measured IC90 is listed for O=C1C=C(N2CCC2)C(N2CCC2)=CC1=O ?
Result: > 500 µM

Ask: Now this one: COC1=CC(=O)C(=O)C=C1OC
Result: > 500 µM

Ask: Next up: COC1=CC(=O)C(O)=C/C1=N\CCCl
Result: 455 µM
